Origin of the recorded values: PubChem BioAssay (NCATS)

# Test system: SKOV3
# PROTOCOL TEXT: Primary qHTS to identify gynecologic anti-cancer compounds using libraries of approved drugs and bioactive compounds (AID 1345084); note: % is set by controls: 0 for no effect and ±100 for the full control effect; nearly all actives have a fitted effect of over 55% in size
# CONDITION: Gynecologic cancer cell panel viability, ATPlite luminescence, 48 h; series mostly up to 57.5 µM
Records with an inconclusive call do not appear. Activity calls are given as the source filed them. Calls come from the whole dose curve; as a rule, active = well fitted cell-killing curve with a large enough effect; inconclusive = small, poorly fitted or top-dose-only effect, or effect the other way; inactive = flat fitted curve, though single readings scatter.
TEST READOUT: activity change, negative = cytotoxicity

[[record]]
compound = "CO[C@@H]1COCC[C@@H]1N[C@@H]1CC[C@@](C(=O)N2CCc3ncc(C(F)(F)F)cc3C2)(C(C)C)C1"
reading = "inactive"

[[record]]
compound = "CCOC(=O)c1ccc(N(C)c2csc(-c3ccccc3)n2)cc1"
reading = "inactive"

[[record]]
compound = "C[C@@H]1O[C@@H](O[C@H]2[C@H](O[C@H]3[C@H](O[C@H]4CC[C@@]5(C=O)C(CC[C@]6(C)C5CC=C5C7CC(C)(C)C[C@@H](O)[C@]7(C)CC[C@]56C)C4(C)C)O[C@H](C(=O)O)[C@@H](O)[C@@H]3O)OC[C@@H](O)[C@@H]2O)[C@H](O)[C@H](O)[C@H]1O (stereo partly drawn)"
reading = "13.5% [at 11.6 µM] (inactive)"


====

# Tested on: HACAT
# PROTOCOL TEXT: qHTS assay to identify novel small-molecules to repurpose for Merkel cell carcinoma treatment (AID 1296009); note: nearly all actives have a fitted effect of over 60% in size
# CONDITION: MCC and control cell lines, CellTiter-Glo viability, 72 h; at 44.8 µM (top of the series) unless noted
# Source text: MCC is a rare and aggressive neuroendocrine skin cancer with limited treatment options. Approximately 80% of MCCs have the Merkel cell polyomavirus (MCPyV) DNA integrated into the host genome (virus-positive: VP-MCC) and viral oncogenes drive oncogenesis. The remaining MCCs are virus-negative (VN-MCC) and are caused by UV mutagenesis. […] Using cell viability as a readout (CellTiter-Glo assay) we found both overlapping and distinct drugs that can be repurposed for the treatment of VP-MCC and VN-MCC. […]
Records with an inconclusive call do not appear. Active and inactive are the calls of the source. Calls come from the whole dose curve; as a rule, active = well fitted inhibition curve with a large enough effect; inconclusive = small, poorly fitted or top-dose-only effect; inactive = flat fitted curve, though single readings scatter.
TEST READOUT: outcome

[[record]]
compound = "NC1CCC(N[C@@H]2C[C@H]2c2ccccc2)CC1 (some centres undefined)"
test_readout = "outcome"
reading = "inactive"

[[record]]
compound = "O=C(O)C[C@@H](NC(=O)c1cc(-c2ccc(-c3ccncc3)cc2)cs1)c1ccccc1"
test_readout = "outcome"
reading = "inactive"

[[record]]
compound = "C[C@H]1[C@H](C)CC[C@]2(C(=O)O)CC[C@]3(C)C(=CC[C@@H]4[C@@]5(C)C[C@@H](O)[C@H](O)[C@@](C)(CO)[C@@H]5CC[C@]43C)[C@H]12"
test_readout = "outcome"
reading = "inactive"

[[record]]
compound = "C[C@H]1C[C@H]2[C@@H]3CCC4=CC(=O)C=C[C@]4(C)[C@@]3(F)[C@@H](O)C[C@]2(C)[C@@]1(O)C(=O)COP(=O)(O)O"
test_readout = "outcome"
reading = "inactive"

[[record]]
compound = "CCCOc1ccn2c(C(C)=O)cc(-c3ccccc3S(C)(=O)=O)c2c1"
test_readout = "outcome"
reading = "inactive"

[[record]]
compound = "COc1cccc(-n2nc(C(=O)O)cc2-c2ccc(C3CCCCC3)c(Cl)c2)c1"
test_readout = "outcome"
reading = "inactive"

[[record]]
compound = "CC/C=C/CC1=C(CCCCCCCC(=O)O)CCC1=O"
test_readout = "outcome"
reading = "inactive"

[[record]]
compound = "CC1(CCC(=O)O)C(=O)C=CC23CC4CC(OC4(C)C2O)C13 (centres undefined)"
test_readout = "outcome"
reading = "inactive"

[[record]]
compound = "C[C@H]1[C@H](C)CC[C@]2(C(=O)O[C@@H]3O[C@H](CO)[C@@H](O)[C@H](O)[C@H]3O)CC[C@]3(C(=O)O)C(=CCC4[C@@]5(C)CC[C@H](O[C@@H]6O[C@H](CO)[C@@H](O)[C@H](O)[C@H]6O)C(C)(C)C5CC[C@]43C)[C@H]12 (some centres undefined)"
test_readout = "outcome"
reading = "inactive [at 9.27 µM]"

[[record]]
compound = "CC(=O)O[C@@H]1[C@H](O[C@@H]2O[C@H](CO)[C@@H](O)[C@H](O)[C@H]2O)[C@@H](O[C@@H]2O[C@@H](C)[C@H](O)[C@@H](O[C@@H]3O[C@H](CO)[C@@H](O)[C@H](O)[C@H]3O)[C@H]2O)[C@H](OC(=O)C23CCC4(C)C(=CCC5C6(C)CC(O)C(O[C@@H]7O[C@H](C(=O)O)[C@@H](O)[C@H](O)[C@H]7O)C(C)(C(=O)O)C6CCC54C)C2CC(C)(C)CC3O)O[C@@H]1C (some centres undefined)"
test_readout = "outcome"
reading = "inactive [at 9.27 µM]"

[[record]]
compound = "C=C1CC2(C(=O)O)CC1CCC2C1(C)CCCC2(C)C(=O)OC(O)C21 (centres undefined)"
test_readout = "outcome"
reading = "inactive"

[[record]]
compound = "CCOC(=O)[C@H](CCc1ccccc1)N[C@@H](C)C(=O)N1C2CCCCC2C[C@H]1C(=O)O (some centres undefined)"
test_readout = "outcome"
reading = "inactive"

[[record]]
compound = "Cc1ncc([N+](=O)[O-])n1CC(O)CN1CCOCC1 (centres undefined)"
test_readout = "outcome"
reading = "inactive"


====

# PROTOCOL TEXT: qHTS assay to identify small molecule inhibitors of chordoma cells - UCH-1 (AID 1259355); note: % is set by controls: 0 for no effect and ±100 for the full control effect; nearly all actives have a fitted effect of over 55% in size
# CONDITION: UCH-1 chordoma viability, CellTiter-Glo, 48 h, combination, with auranofin plus four topoisomerase inhibitors; series mostly up to 46.1 µM
Records with an inconclusive call do not appear. Calls of active or inactive are those of the source. The call rests on the fitted dose curve; in most records, active means well fitted cell-killing curve with a large enough effect; inconclusive means small, poorly fitted or top-dose-only effect, or effect the other way; inactive means no such curve, though single readings can be large or run the other way.
TEST READOUT: outcome

[[record]]
compound = "O=C(COc1ccc(Cl)cc1)OCCNC12CC3CC(CC(C3)C1)C2"
reading = "inactive"

[[record]]
compound = "Oc1cc(O)c2c(c1)OC(c1ccc(O)c(O)c1)C(O)C2 (stereo not drawn)"
reading = "inactive"

[[record]]
compound = "CC1(C)S[C@@H]2[C@H](NC(=O)[C@@H](NC(=O)N3CCNC3=O)c3ccccc3)C(=O)N2[C@H]1C(=O)O"
reading = "inactive"


====

# Test system: CP260
# PROTOCOL TEXT: qHTS profiling for inhibitors of Plasmodium falciparum proliferation (AID 504749);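 note: 0% = DMSO vehicle and full inhibition = artemisinin control; nearly all actives have a fitted effect of over 60% in size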
# CONDITION: P. falciparum in erythrocytes, SYBR Green DNA, 72 h; series mostly up to 28.7 µM
Inconclusive results are not listed. Activity calls are given as the source filed them. The call rests on the fitted dose curve; in most records, active means well fitted inhibition curve with a large enough effect; inconclusive means small, poorly fitted or top-dose-only effect; inactive means flat fitted curve, though single readings scatter.
TEST READOUT: outcome

[[record]]
compound = "NC(=O)c1ncn(C2OC(CO)C(O)C2O)n1 (stereo not drawn)"
reading = "inactive"

[[record]]
compound = "CC(Cc1ccc(O)c(O)c1)C(C)Cc1ccc(O)c(O)c1 (stereo not drawn)"
reading = "inactive"

[[record]]
compound = "IC(I)I"
reading = "inactive"


====

# Test system: OV90
# PROTOCOL TEXT: Primary qHTS to identify gynecologic anti-cancer compounds using libraries of approved drugs and bioactive compounds (AID 1345084); note: % is set by controls: 0 for no effect and ±100 for the full control effect; nearly all actives have a fitted effect of over 55% in size
# CONDITION: Gynecologic cancer cell panel viability, ATPlite luminescence, 48 h; series mostly up to 57.5 µM
Results filed as inconclusive are left out. The source made the active and inactive calls. The call rests on the fitted dose curve; in most records, active means well fitted cell-killing curve with a large enough effect; inconclusive means small, poorly fitted or top-dose-only effect, or effect the other way; inactive means flat fitted curve, though single readings scatter. Where a SMILES comes first, the peptide text is derived from it. Bridges are numbered along the chain shown (N, C = ends). [ ]: non-standard residue; d: D form. The star is where a group is joined. AFC = O=c1cc(C(F)(F)F)c2ccc(N*)cc2o1; X1 = CCC(C)C(N)C1=NC(C(=O)*)CS1; dOrn = NCCC[C@@H](N)C(=O)O
TEST READOUT: activity change, negative = cytotoxicity

[[record]]
compound = "C[C@@H](O)[C@H](N)C(=O)N1CCC[C@H]1C(=O)N1CCC[C@H]1C(=O)N[C@H](C(N)=O)[C@@H](C)O (H-TPPT-NH2)"
experimental_system = "OV90"
reading = "-0.207% [at 11.6 µM] (inactive)"

[[record]]
compound = "CCC(C)C(N)C1=NC(C(=O)N[C@@H](CC(C)C)C(=O)N[C@H](CCC(=O)O)C(=O)N[C@H](C(=O)N[C@H]2CCCCNC(=O)[C@H](CC(N)=O)NC(=O)[C@@H](CC(=O)O)NC(=O)[C@H](Cc3cnc[nH]3)NC(=O)[C@@H](Cc3ccccc3)NC(=O)[C@H]([C@@H](C)CC)NC(=O)[C@@H](CCCN)NC2=O)[C@@H](C)CC)CS1 (stereo not given in full) (X1-L[dE]IK[dOrn]I[dF]H[dD]N; lactam 4-C)"
experimental_system = "OV90"
reading = "inactive"

[[record]]
compound = "O=C(C1CC1)N1CC[C@@H](Cc2n[nH]c(=O)n2-c2ccc(-c3ccc4occc4c3)cc2)C1"
experimental_system = "OV90"
reading = "inactive"

[[record]]
compound = "CC(=O)N[C@@H](CC(C)C)C(=O)N[C@@H](CCC(=O)O)C(=O)N[C@@H](CCC(=O)O)C(=O)N[C@@H](CC(=O)O)C(=O)Nc1ccc2c(C(F)(F)F)cc(=O)oc2c1 (Ac-LEED-{AFC})"
experimental_system = "OV90"
reading = "inactive"

[[record]]
compound = "O=C(NCC(=O)N1CC[C@H](NC2CCC(O)(c3ccc(-c4ncccn4)cn3)CC2)C1)c1cccc(C(F)(F)F)c1 (stereo not given in full)"
experimental_system = "OV90"
reading = "inactive"

